Target: Neutrophil elastase (Homo sapiens, UniProt P08246)
Sequence (P08246 whole entry): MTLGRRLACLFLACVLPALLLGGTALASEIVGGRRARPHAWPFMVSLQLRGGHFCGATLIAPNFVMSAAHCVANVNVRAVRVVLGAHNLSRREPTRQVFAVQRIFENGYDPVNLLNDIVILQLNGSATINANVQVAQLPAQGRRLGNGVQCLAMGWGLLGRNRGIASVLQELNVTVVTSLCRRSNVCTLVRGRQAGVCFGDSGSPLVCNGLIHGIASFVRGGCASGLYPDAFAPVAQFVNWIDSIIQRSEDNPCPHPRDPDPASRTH
Test: Inhibitory concentration required against Human Leukocyte Elastase (HLE) for 50% reduction in rate of hydrolysis of (suc-Ala-Ala-Pro-Ala-p-NA) peptide
experimental endpoint: IC50 (µM)
Answer with a number only, understood to be in µM.

q: What measured IC50 goes with `C[C@@H](OC(=O)NCc1ccccc1)[C@@H]1C(=O)N2[C@@H](C(=O)OCc3ccccc3)C(C)(C)S(=O)(=O)[C@H]12` ?
a: 10

---

Biological target: Neutrophil elastase (Homo sapiens)
Sequence (P08246 whole entry): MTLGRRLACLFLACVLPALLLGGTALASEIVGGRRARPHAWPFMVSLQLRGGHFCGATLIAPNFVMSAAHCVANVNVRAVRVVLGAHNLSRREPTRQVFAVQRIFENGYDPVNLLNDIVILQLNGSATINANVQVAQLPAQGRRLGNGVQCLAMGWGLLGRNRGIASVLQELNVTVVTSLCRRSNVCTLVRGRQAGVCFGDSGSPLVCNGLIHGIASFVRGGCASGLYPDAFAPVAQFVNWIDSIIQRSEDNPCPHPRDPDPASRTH
Test: Inhibitory concentration required against Human Leukocyte Elastase (HLE) for 50% reduction in rate of hydrolysis of (suc-Ala-Ala-Pro-Ala-p-NA) peptide;compound was inactive
experimental endpoint: IC50 (nM)
Answer with a number only, understood to be in nM.

q: What measured IC50 goes with `CC1(C)[C@H](C(=O)OCc2ccccc2)N2C(=O)[C@@H](NC(=O)C(F)(F)F)[C@H]2S1(=O)=O` ?
a: 2000

---

molecular target: Neutrophil elastase (Homo sapiens); assay: Inhibitory concentration required against Human Leukocyte Elastase (HLE) for 50% reduction in rate of hydrolysis of (suc-Ala-Ala-Pro-Ala-p-NA) peptide
experimental endpoint: IC50 (µM)
Answer with a number only, understood to be in µM.

q: What measured IC50 goes with `CCO[C@H]1C(=O)N2[C@@H](C(=O)OCc3ccccc3)C(C)(C)S(=O)(=O)[C@H]12` ?
a: 2

q: What measured IC50 goes with `CC1(C)[C@H](C(=O)OCc2ccccc2)N2C(=O)[C@H](COC(=O)NCc3ccccc3)[C@H]2S1(=O)=O` ?
a: 4

q: What measured IC50 goes with `COC(=O)[C@@H]1N2C(=O)[C@H](OC)[C@H]2S(=O)(=O)C1(C)C` ?
a: 20

---

Target: Neutrophil elastase (Homo sapiens, UniProt P08246)
Sequence (P08246 whole entry): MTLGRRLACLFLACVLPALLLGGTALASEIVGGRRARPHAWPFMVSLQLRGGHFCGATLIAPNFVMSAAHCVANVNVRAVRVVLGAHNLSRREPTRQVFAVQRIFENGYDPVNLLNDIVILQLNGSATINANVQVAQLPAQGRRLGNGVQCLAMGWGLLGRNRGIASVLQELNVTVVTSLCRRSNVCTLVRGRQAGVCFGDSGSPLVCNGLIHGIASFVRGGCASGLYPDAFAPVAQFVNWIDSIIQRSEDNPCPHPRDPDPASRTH
Assay: Inhibitory concentration required against Human Leukocyte Elastase (HLE) for 50% reduction in rate of hydrolysis of (suc-Ala-Ala-Pro-Ala-p-NA) peptide
Item-by-item account of IC50
Answer with a number only, understood to be in nM.

# smiles entry, unit of measure, IC50
data = [
    ("CN(C(=O)C(F)(F)F)[C@H]1C(=O)N2[C@@H](C(=O)OCc3ccccc3)C(C)(C)S(=O)(=O)[C@H]12", "nM", 200),
    ("CC1(C)[C@H](C(=O)OCc2ccccc2)N2C(=O)[C@H](OC(=O)Cc3ccccc3)[C@H]2S1(=O)=O", "nM", 4000),
    ("CN(C(=O)C(F)(F)F)[C@@H]1C(=O)N2[C@@H](C(=O)OCc3ccccc3)C(C)(C)S(=O)(=O)[C@H]12", "nM", 700),
    ("CO[C@]1(NC(=O)C(F)(F)F)C(=O)N2[C@@H](C(=O)OCc3ccccc3)C(C)(C)S(=O)(=O)[C@@H]21", "nM", 800),
]

q: Give IC50 (Neutrophil elastase (Homo sapiens, UniProt P08246)) of the following compound: `C[C@H](OC(=O)NCc1ccccc1)[C@H]1C(=O)N2[C@@H](C(=O)OCc3ccccc3)C(C)(C)S(=O)(=O)[C@H]12`
a: 7000

---

Molecular target: Neutrophil elastase (Homo sapiens, UniProt P08246)
Sequence (P08246 whole entry): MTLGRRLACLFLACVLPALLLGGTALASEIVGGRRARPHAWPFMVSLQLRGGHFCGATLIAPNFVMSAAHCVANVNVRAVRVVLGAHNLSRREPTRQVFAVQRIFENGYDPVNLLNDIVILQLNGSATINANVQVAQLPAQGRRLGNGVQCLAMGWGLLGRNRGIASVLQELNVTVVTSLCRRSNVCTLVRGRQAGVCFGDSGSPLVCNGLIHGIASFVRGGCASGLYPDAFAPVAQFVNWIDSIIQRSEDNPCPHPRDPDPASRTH
Test: Inhibitory concentration required against Human Leukocyte Elastase (HLE) for 50% reduction in rate of hydrolysis of (suc-Ala-Ala-Pro-Ala-p-NA) peptide
Item-by-item account of IC50
Answer with a number only, understood to be in µM.

q: What measured IC50 goes with `CC1(C)[C@H](C(=O)OCc2ccccc2)N2C(=O)[C@H](NC(=O)C(F)(F)F)[C@H]2S1(=O)=O` ?
a: 0.15

---

target: Neutrophil elastase (Homo sapiens); assay: Inhibitory concentration required against Human Leukocyte Elastase (HLE) for 50% reduction in rate of hydrolysis of (suc-Ala-Ala-Pro-Ala-p-NA) peptide
pIC50: −log10 of the molar value.
Label yes (1) when pIC50 is at or above 6; anything below gets no (0).

# molecule, system tested, group label
rows = [
    ("CC1(C)[C@H](C(=O)OCc2ccccc2)N2C(=O)[C@H](OCc3ccccc3)[C@H]2S1(=O)=O", "Neutrophil elastase (Homo sapiens)", "no (0)"),
    ("CC(=O)O[C@H]1C(=O)N2[C@@H](C(=O)OCc3ccccc3)C(C)(C)S(=O)(=O)[C@H]12", "Neutrophil elastase (Homo sapiens)", "yes (1)"),
    ("CO[C@H]1C(=O)N2[C@@H](C(=O)OCC(F)(F)F)C(C)(C)S(=O)(=O)[C@H]12", "Neutrophil elastase (Homo sapiens)", "no (0)"),
    ("CC1(C)[C@H](C(=O)OCc2ccccc2)N2C(=O)[C@@](C)(NC(=O)C(F)(F)F)[C@H]2S1(=O)=O", "Neutrophil elastase (Homo sapiens)", "no (0)"),
    ("CC(=O)O[C@H]1C(=O)N2[C@@H]1SC(C)(C)[C@@H]2C(=O)OCc1ccccc1", "Neutrophil elastase (Homo sapiens)", "no (0)"),
]

q: Check the entry `CC1(C)[C@H](C(=O)OCc2ccccc2)N2C(=O)[C@H](Cl)[C@H]2S1(=O)=O` : does pIC50 equal or exceed 6?
a: no (0)

q: Check the entry `CC1(C)[C@H](C(=O)OCc2ccccc2)N2C(=O)[C@H](OC(=O)COc3ccccc3)[C@H]2S1(=O)=O` : does pIC50 equal or exceed 6?
a: no (0)

q: Check the entry `CC1(C)S[C@@H]2[C@@H](NC(=O)C(F)(F)F)C(=O)N2[C@H]1C(=O)OCc1ccccc1` : does pIC50 equal or exceed 6?
a: no (0)

q: Check the entry `CC[C@@]1(NC(=O)C(F)(F)F)C(=O)N2[C@@H](C(=O)OCc3ccccc3)C(C)(C)S(=O)(=O)[C@@H]21` : does pIC50 equal or exceed 6?
a: no (0)

q: Check the entry `C[C@H](OC(=O)NCc1ccccc1)[C@@H]1C(=O)N2[C@@H](C(=O)OCc3ccccc3)C(C)(C)S(=O)(=O)[C@H]12` : does pIC50 equal or exceed 6?
a: yes (1)

q: Check the entry `CC1(C)[C@H](C(=O)OCC(F)(F)F)N2C(=O)[C@H](NC(=O)C(F)(F)F)[C@H]2S1(=O)=O` : does pIC50 equal or exceed 6?
a: yes (1)

q: Check the entry `CO[C@@]1(NC(=O)C(F)(F)F)C(=O)N2[C@@H](C(=O)OCc3ccccc3)C(C)(C)S(=O)(=O)[C@@H]21` : does pIC50 equal or exceed 6?
a: no (0)

q: Check the entry CC(=O)O[C@H]1C(=O)N2[C@@H](C(=O)OCc3ccccc3)C(C)(C)[S+]([O-])[C@@H]12 (stereo partly drawn) : does pIC50 equal or exceed 6?
a: no (0)

q: Check the entry `CC1(C)[C@H](C(=O)OCC(F)(F)F)N2C(=O)[C@@H](NC(=O)C(F)(F)F)[C@H]2S1(=O)=O` : does pIC50 equal or exceed 6?
a: no (0)

q: Check the entry `CC1(C)S[C@@H]2[C@H](NC(=O)C(F)(F)F)C(=O)N2[C@H]1C(=O)OCc1ccccc1` : does pIC50 equal or exceed 6?
a: no (0)

q: Check the entry `Cc1ccc(S(=O)(=O)O[C@H]2C(=O)N3[C@@H](C(=O)OCc4ccccc4)C(C)(C)S(=O)(=O)[C@H]23)cc1` : does pIC50 equal or exceed 6?
a: yes (1)
